Test system: MS2 coat protein
Test: apparent KD of MS2 coat protein; designed switch direction (-1 OFF switch, 1 ON switch): -1; higher = weaker reporter binding
Conditions: input ligand: none
READOUT_LABEL: apparent KD of MS2 coat protein (nM)
Write the value in nM as a bare number.

>>> reported_measurement("GUCAUCACACAUGGGAUCAACAUGAGGAUCACCCAUGUUGUCAAGUUUUUUGCUCGUCUUAUAAUACGUUUGAUGAG [Mod-Jxd] (Eterna round: R97, puzzle: Sensor, turn-off variant 1)")
154
>>> reported_measurement("AUGUAACAUGAGGAUCACCCAUGUGAGGAUAUGCGAAUGAAUGAAUGAAUGAAUGUUAGCAGAAGGCACAAGUA [Default title] (Eterna round: R97, puzzle: Exclusion 1)")
44.3
>>> reported_measurement("GCAGCAACUCUAAUCAAUCCAACAUGAGGAUCACCCAUGUCUCAGGAUAUGGUCUGGAUUACAGGCCAGAAGGGAGAAAGCUGC [Eli exng3 - 046] (Eterna round: R96, puzzle: Exclusion NG 3)")
11.9
>>> reported_measurement("GCGAUGUGAGGAUAUACAAGGUGUGAGAGUGCUUGAACGUAACAUGAGGAUCACCCAUGUAGAAGGUAUGUGAU [Eternabot (L1) Solution 29] (Eterna round: R97, puzzle: Exclusion 2)")
181

Please look at the following sequence next.
**Q:** // apparent KD of MS2 coat protein lookup, key: CUGUUUUUCGCAGGAUAUGCUCCUCCAUUAUUUGCAGAAGGGCGUUAAACAUGAGGAUCACCCAUGUAUGGUAAUGACUAUUGC [JR_ExcNG1_Sub066] (Eterna round: R96, puzzle: Exclusion NG 1)
**A:** 19.6
